Reported values of pIC50 for individual entries
# subject-of-test: Xanthine oxidase (from bovine milk, Sigma) (Bos taurus (Bovine), UniProt P80457)
# Sequence (P80457 whole entry): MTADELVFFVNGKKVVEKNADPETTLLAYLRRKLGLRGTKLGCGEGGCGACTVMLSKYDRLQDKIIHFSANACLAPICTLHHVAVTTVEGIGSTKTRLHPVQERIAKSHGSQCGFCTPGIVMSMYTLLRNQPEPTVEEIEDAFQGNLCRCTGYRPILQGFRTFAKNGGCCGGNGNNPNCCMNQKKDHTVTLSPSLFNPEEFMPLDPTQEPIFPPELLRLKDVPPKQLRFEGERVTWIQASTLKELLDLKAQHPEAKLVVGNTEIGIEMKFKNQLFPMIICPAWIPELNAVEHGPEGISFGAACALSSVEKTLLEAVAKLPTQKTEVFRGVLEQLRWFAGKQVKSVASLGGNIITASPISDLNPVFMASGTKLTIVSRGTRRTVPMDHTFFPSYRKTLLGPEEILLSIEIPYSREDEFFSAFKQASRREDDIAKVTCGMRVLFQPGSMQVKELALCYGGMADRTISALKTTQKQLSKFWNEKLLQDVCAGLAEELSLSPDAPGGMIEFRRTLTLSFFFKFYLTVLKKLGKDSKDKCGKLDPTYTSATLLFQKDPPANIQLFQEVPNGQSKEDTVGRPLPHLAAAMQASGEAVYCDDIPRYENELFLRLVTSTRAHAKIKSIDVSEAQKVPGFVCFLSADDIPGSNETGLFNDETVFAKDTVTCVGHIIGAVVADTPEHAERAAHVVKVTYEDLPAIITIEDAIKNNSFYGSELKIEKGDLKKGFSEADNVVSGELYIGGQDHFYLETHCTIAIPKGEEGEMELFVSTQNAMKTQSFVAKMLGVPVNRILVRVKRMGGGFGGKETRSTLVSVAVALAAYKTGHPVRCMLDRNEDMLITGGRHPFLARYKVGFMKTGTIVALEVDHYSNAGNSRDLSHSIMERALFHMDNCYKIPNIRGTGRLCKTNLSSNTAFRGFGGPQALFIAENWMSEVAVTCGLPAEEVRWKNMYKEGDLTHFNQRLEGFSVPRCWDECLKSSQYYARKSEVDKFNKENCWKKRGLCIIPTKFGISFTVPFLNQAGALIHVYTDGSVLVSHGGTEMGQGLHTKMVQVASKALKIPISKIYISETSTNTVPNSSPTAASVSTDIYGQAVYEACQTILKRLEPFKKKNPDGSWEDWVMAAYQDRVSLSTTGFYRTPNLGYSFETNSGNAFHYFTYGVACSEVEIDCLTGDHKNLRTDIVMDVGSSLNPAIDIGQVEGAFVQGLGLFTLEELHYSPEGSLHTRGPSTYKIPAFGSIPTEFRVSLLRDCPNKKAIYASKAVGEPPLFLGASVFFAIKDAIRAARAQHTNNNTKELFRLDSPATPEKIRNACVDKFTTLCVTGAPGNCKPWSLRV
# assay: Xanthine oxidase inhibitory activity
# Type: biochemical
# measurement-parameters: 100 μM xanthine final, absorbance at 290 nm
pIC50: −log10 of the molar value.
measured-quantity: pIC50

# structure-smiles, assay-result
rows = [
    ("CCCOc1ccccc1-c1cn(-c2ccc(C(=O)O)c(O)c2)cc1C#N", 7.44),
    ("Cc1cccc(-c2cn(-c3ccc(C(=O)O)c(O)c3)cc2C#N)c1", 7.81),
    ("Cc1ccccc1-c1cn(-c2cc(C(=O)O)ccn2)cc1C#N", 7.05),
    ("N#Cc1cn(-c2ccc(C(=O)O)c(O)c2)cc1-c1ccccc1", 8.21),
    ("N#Cc1cn(-c2ccc(C(=O)O)c(O)c2)cc1-c1nccs1", 8.28),
]

---

# subject-of-test: Xanthine oxidase (from bovine milk, Sigma) (Bos taurus (Bovine), UniProt P80457)
# assay: Xanthine oxidase inhibitory activity
# Assay type: biochemical
# measurement-parameters: 100 μM xanthine final, absorbance at 290 nm
Reported values of IC50 for individual entries
measured-quantity: IC50 (nM)

# structure-smiles, units-symbol, assay-result
measured = [
    ("Cc1ccc(-c2cn(-c3cc(C(=O)O)ccn3)cc2C#N)cc1", "nM", 21.3),
    ("N#Cc1cn(-c2ccc(C(=O)O)c(O)c2)cc1-c1cccc2ccccc12", "nM", 13.1),
    ("COc1cn(-c2ccc(C(=O)O)c(O)c2)cc1C#N", "nM", 5.3),
    ("N#Cc1cn(-c2ccc(C(=O)O)c(O)c2)cc1-c1ccsc1", "nM", 5.2),
    ("N#Cc1cn(-c2ccc(C(=O)O)c(O)c2)cc1-c1ccc(C(F)(F)F)cc1", "nM", 17),
]

---

# subject-of-test: Xanthine oxidase (from bovine milk, Sigma) (Bos taurus (Bovine), UniProt P80457)
# assay: Xanthine oxidase inhibitory activity
# Type: biochemical
# measurement-parameters: 100 μM xanthine final, absorbance at 290 nm
true if IC50 is below 8 nM. false if not; exact matches included in false.

# structure-smiles, subject-of-test, category-label
measured = [
    ("CC(C)Oc1ccc(-c2cn(-c3ccc(C(=O)O)c(O)c3)cc2C#N)cc1", "Xanthine oxidase (from bovine milk, Sigma) (Bos taurus (Bovine), UniProt P80457)", "false"),
    ("N#Cc1cn(-c2ccc(C(=O)O)c(O)c2)cc1-c1ccco1", "Xanthine oxidase (from bovine milk, Sigma) (Bos taurus (Bovine), UniProt P80457)", "true"),
    ("N#Cc1ccn(-c2ccc(C(=O)O)c(O)c2)n1", "Xanthine oxidase (from bovine milk, Sigma) (Bos taurus (Bovine), UniProt P80457)", "false"),
    ("CSc1ccccc1-c1cn(-c2ccc(C(=O)O)c(O)c2)cc1C#N", "Xanthine oxidase (from bovine milk, Sigma) (Bos taurus (Bovine), UniProt P80457)", "true"),
    ("Cc1ccc(-c2cn(-c3ccc(C(=O)O)c(O)c3)cc2C#N)s1", "Xanthine oxidase (from bovine milk, Sigma) (Bos taurus (Bovine), UniProt P80457)", "false"),
    ("COc1ccc2ccccc2c1-c1cn(-c2ccc(C(=O)O)c(O)c2)cc1C#N", "Xanthine oxidase (from bovine milk, Sigma) (Bos taurus (Bovine), UniProt P80457)", "false"),
    ("COc1ccc(CCc2cn(-c3ccc(C(=O)O)c(O)c3)cc2C#N)cc1", "Xanthine oxidase (from bovine milk, Sigma) (Bos taurus (Bovine), UniProt P80457)", "true"),
    ("N#Cc1cn(-c2ccc(C(=O)O)c(O)c2)cc1-c1csc2ccccc12", "Xanthine oxidase (from bovine milk, Sigma) (Bos taurus (Bovine), UniProt P80457)", "true"),
    ("Cc1ccccc1-c1cn(-c2ccc(C(=O)O)c(O)c2)cc1C#N", "Xanthine oxidase (from bovine milk, Sigma) (Bos taurus (Bovine), UniProt P80457)", "true"),
    ("COc1ccccc1-c1cn(-c2ccc(C(=O)O)c(O)c2)cc1C#N", "Xanthine oxidase (from bovine milk, Sigma) (Bos taurus (Bovine), UniProt P80457)", "true"),
    ("COc1ccc(-c2cn(-c3ccc(C(=O)O)c(O)c3)cc2C#N)c(F)c1", "Xanthine oxidase (from bovine milk, Sigma) (Bos taurus (Bovine), UniProt P80457)", "true"),
    ("N#Cc1cn(-c2ccc(C(=O)O)c(O)c2)cc1-c1cccn1-c1ccccc1", "Xanthine oxidase (from bovine milk, Sigma) (Bos taurus (Bovine), UniProt P80457)", "false"),
    ("N#Cc1cn(-c2ccc(C(=O)O)c(O)c2)cc1-c1ccccc1C(F)(F)F", "Xanthine oxidase (from bovine milk, Sigma) (Bos taurus (Bovine), UniProt P80457)", "false"),
]
